Reference source: PubChem BioAssay (NCI)

Provide the reported TGI of each item.
# System: LOX IMVI melanoma
# Measurement notes: NCI tumour cell line growth inhibition, 48 h

Hey, can you go through the list below and give me TGI for every item?
1. CC(=O)C(C)(C)CCC(C)(C)C(C)=O
2. COC(=O)c1c(-c2cccs2)oc(-c2cccs2)c1C(=O)OC
3. CCN(CC)C(=O)Cn1c2c(c3ccccc31)CCCC2
4. COc1ccc(-c2cncn2-c2cc(OC)c(OC)c(OC)c2)cc1

[A]
> 100 µM
> 63.1 µM
> 100 µM
> 80.9 µM

Hey, can you go through the list below and give me TGI for every item?
1. NC(=O)CN1C=CCC(C(N)=O)=C1
2. COc1cc(Oc2nc3cc(F)c(F)cc3nc2-c2ccccc2)cc(OC)c1OC

[A]
["> 100 µM", "> 100 µM"]

====

# Tested on: OVCAR-5 ovarian
# Measurement notes: NCI tumour cell line growth inhibition, 48 h
Provide the reported TGI of each item.

Use these answered entries as a reference point.
INSERT INTO results (molecule, endpoint_result) VALUES
  ('COc1cc(/C=C/c2ccc(O)c(OC)c2)cc(OC)c1', '> 100 µM'),
  ('COc1cccc2cc(N(C)c3nc(C)nc4c3CCC4)ccc12', '19.6 µM'),
  ('Cc1nc(-c2cc3ccccc3oc2=O)cs1', '> 100 µM'),
  ('CCCCC#Cc1c(I)n(C)c(=O)[nH]c1=O', '19.2 µM'),
  ('CCN(CC)CC1CCCCN1CC(=O)N1CC(C)C(=O)Nc2ccccc21 (configuration not stated)', '> 100 µM'),
  ('CN(C)CCCn1c(=O)c2ccccc2c2cnc3[nH]ccc3c21', '14.9 µM');

Hey, can you go through the list below and give me TGI for every item?
1. COc1cc2nc(-c3cccs3)nc(Nc3cccc(Cl)c3)c2cc1OC
2. Cc1c([C@H](C)[C@@H]2NC[C@@H](C)C[C@H]2O)ccc2c1C[C@H]1[C@H]2CC=C2C[C@@H](O)CC[C@@]21C

[A]
> 100 µM
90.8 µM

====

Provide the reported TGI of each item.
# Tested on: SNB-75 CNS
# Measurement notes: NCI tumour cell line growth inhibition, 48 h

Use these answered entries as a reference point.
INSERT INTO results (smiles_record, endpoint_result) VALUES
  ('CCOC(=O)C1=C(O)c2ccc(C)cc2C(=O)C1=O', '> 100 µM'),
  ('Cc1ccc([N+](=O)[O-])c2c(NCCNC(=O)c3cc(C(=O)NCCNc4ccnc5c(C)ccc([N+](=O)[O-])c45)n(C)n3)ccnc12', '> 87.3 µM'),
  ('O=C1NC(N2CCOCC2)=N/C1=C\c1ccc(O)cc1', '> 100 µM'),
  ('COc1ccc(Oc2ccccc2N)cc1', '> 100 µM'),
  ('Cc1ccc(NC(=O)C(=O)CC(=O)c2c(C)n([O-])c3ccccc3[n+]2=O)cc1C', '> 100 µM');

Hey, can you go through the list below and give me TGI for every item?
1. NCCSCCC(=O)O
2. COc1ccccc1NC(=O)CC(=O)NN
3. CC(C)Oc1cccc(N2C(Nc3ccccc3)=Nc3ccncc3S2(=O)=O)c1

[A]
> 92.6 µM
> 100 µM
> 100 µM

====

# Tested on: CCRF-CEM leukemia
# Measurement notes: NCI tumour cell line growth inhibition, 48 h
Provide the reported TGI of each item.
Give bare numbers, in µM.

Use these answered entries as a reference point.
INSERT INTO assay_data (smiles_record, endpoint_result) VALUES
  ('Nc1nc2c(C(=O)NCc3cccs3)nnn2c2cccc(Cl)c12', 55.6),
  ('COc1ccc(-c2ccc(/C=N/n3c(COc4ccccc4Cl)nn(CN4CCOCC4)c3=S)o2)c([N+](=O)[O-])c1', 47.9),
  ('CCCCCCCCOc1ccc(/C=C/C2=[N+](CCO)CCO2)cc1', 6.43),
  ('CC1=C(C(=O)Nc2ccccc2)C(c2ccccc2Cl)C(C(=O)Nc2ccccc2)=C(C)N1', 62.1);

# COc1nc(C#CC2CCCCC2)nc(OC)n1 with CCRF-CEM leukemia: TGI is 11.7

====

Provide the reported TGI of each item.
# Test system: HT29 colon
# Measurement notes: NCI tumour cell line growth inhibition, 48 h

INSERT INTO results (molecule, endpoint_result) VALUES
  ('CCOC(=O)Nc1ccc(S(=O)(=O)Nn2cnnc2)cc1', '59.9 µM'),
  ('C1CN(c2nnc(N3CCC3)nn2)C1', '> 56.2 µM');

Hey, can you go through the list below and give me TGI for every item?
1. COC(=O)c1c(-c2cccs2)oc(-c2cccs2)c1C(=O)OC
2. Cc1ccc(N=C[N-]c2ccc(C)cc2)cc1.Cc1ccc(N=C[N-]c2ccc(C)cc2)cc1.O=C([O-])C(F)(F)F.O=C([O-])C(F)(F)F.[OH3+].[OH3+].[Rh+2].[Rh+2]
3. CC(=O)OC[C@H]1On2nnnc2[C@H](OC(C)=O)[C@@H](OC(C)=O)[C@@H]1OC(C)=O
4. O=C(OCc1ccccc1)N1CCNCCNCCN(C(=O)OCc2ccccc2)CCNCC1

[A]
1. > 100 µM
2. 42.1 µM
3. > 100 µM
4. 32.9 µM

Hey, can you go through the list below and give me TGI for every item?
1. OC(NN=C1CCCC1)(C(F)(F)Cl)C(F)(F)Cl
2. Cc1ccc(NC(=O)C(=O)CC(=O)c2c(C)n([O-])c3ccccc3[n+]2=O)cc1C
3. CC(C)Oc1cccc(N2C(Nc3ccccc3)=Nc3ccncc3S2(=O)=O)c1
4. Cc1ccccc1NC(=O)CC(=O)NNC(Sc1ccccc1)c1cc(N=Nc2ccc(Br)cc2)ccc1O (stereo not given)

[A]
> 10 µM
> 100 µM
> 100 µM
> 10 µM

====

# System: HCC-2998 colon
# Measurement notes: NCI tumour cell line growth inhibition, 48 h
Quantity name: TGI

Use these answered entries as a reference point.
INSERT INTO measurements (compound, tgt, quantity_name, endpoint_result) VALUES
  ('O=C(O)c1cccc(NC(C(=O)c2ccccc2)c2ccccc2)c1 (stereo not drawn)', 'HCC-2998 colon', 'TGI', '> 100 µM'),
  ('OC(NN=C1CCCC1)(C(F)(F)Cl)C(F)(F)Cl', 'HCC-2998 colon', 'TGI', '> 10 µM');

Proceed to the following item.
The compound listed as CCCCCC(=O)Nc1nc2nc[nH]c2c(=O)[nH]1 has a reported TGI of > 100 µM

====

# Test system: OVCAR-8 ovarian
# Measurement notes: NCI tumour cell line growth inhibition, 48 h
Provide the reported TGI of each item.

INSERT INTO measurements (molecule, quantity_name, endpoint_result) VALUES
  ('CC(=O)OCC1OC(n2c(C)c(C)c(C)c(C#N)c2=S)C(OC(C)=O)C(OC(C)=O)C1OC(C)=O (stereo not drawn)', 'TGI', '> 100 µM'),
  ('COc1cc2nc(-c3cccs3)nc(Nc3cccc(Cl)c3)c2cc1OC', 'TGI', '> 100 µM');

Proceed to the following item.
The molecule listed as COc1ccccc1S(=O)(=O)Nc1ccc2c3c(cc(CCC(=O)NCCCCNc4cccc5c4C(=O)N(C4CCC(=O)NC4=O)C5=O)cc13)C(=O)N2C (stereo not drawn) has a reported TGI of > 100 µM

====

# Tested on: OVCAR-3 ovarian
# Measurement notes: NCI tumour cell line growth inhibition, 48 h
Provide the reported TGI of each item.

Hey, can you go through the list below and give me TGI for every item?
1. Cc1c2cccc-2ccc2c3ccccc3n(C(=O)c3ccc(Cl)cc3)c12
2. COC1=CC(C2c3cc4c(cc3[C@@H](Nc3ccc(F)cc3)C3COC(=O)[C@H]23)OCO4)=CC(=O)C1=O (stereo partly specified)
3. C[C@H](C1CC2(C)OC2(C)C(=O)O1)[C@H]1CC[C@H]2[C@@H]3[C@@H]4O[C@@H]4[C@@]4(O)CC=CC(=O)[C@]4(C)[C@H]3CC[C@]12C (stereo partly specified)

[A]
["> 100 µM", "> 66.5 µM", "> 50 µM"]

====

# Test system: NCI-H23 lung
# Measurement notes: NCI tumour cell line growth inhibition, 48 h
Provide the reported TGI of each item.

Use these answered entries as a reference point.
INSERT INTO results (compound, endpoint_result) VALUES
  ('S=C1SC(=Nc2ccccc2)C(=Nc2ccccc2)N1c1ccc2ccccc2c1', '> 100 µM'),
  ('OC(NN=C1CCCC1)(C(F)(F)Cl)C(F)(F)Cl', '> 10 µM');

Hey, can you go through the list below and give me TGI for every item?
1. [N-]=[N+]=NCCCn1c2c(c3ccc([N+](=O)[O-])cc3c1=O)C(=O)c1cc(Br)ccc1-2
2. O=C(Nc1nn[nH]n1)c1nc(-c2ccccc2)cc(=O)[nH]1
3. COC1=CC(=O)N(C)C(O)C1(C#N)OC1OC(CO)C(O)C(O)C1O (stereo not given)

[A]
1. > 100 µM
2. > 100 µM
3. > 100 µM
